Measured MIC, listed per entry.
- System: Pseudomonas aeruginosa GN10362
- Test method notes: minimum inhibitory concentration (MIC)
- Assay type: cell-based
- Test settings: Tables 2A, 2B
Note to self: number, then unit, no commentary.

Please review the following examples before continuing.
[
  {
    "Compound": "CC(C)(O/N=C(\\C(=O)N[C@@H]1C(=O)N2C(C(=O)[O-])=C(C[n+]3ccccc3)CS[C@H]12)c1csc(N)n1)C(=O)O [CAZ, ceftazidime, reference compound]",
    "Reported measurement": "1.56 µg/mL"
  },
  {
    "Compound": "CON=C(C(=O)NC1C(=O)N2C(C(=O)O)=C(CSc3cc(C)nc4nc(CO)nn34)CSC12)c1csc(N)n1 (centres unmarked)",
    "Reported measurement": "100 µg/mL"
  },
  {
    "Compound": "CC(C)(ON=C(C(=O)NC1C(=O)N2C(C(=O)O)=C(CSc3cc(C(=O)O)nc4nc(CO)nn34)CSC12)c1csc(N)n1)C(=O)NNC(=O)c1ccc(O)c(O)c1 (centres unmarked)",
    "Reported measurement": "0.025 µg/mL"
  }
]

Q: Hello, I am looking for reported MIC with Pseudomonas aeruginosa GN10362 for CC(C)(ON=C(C(=O)NC1C(=O)N2C(C(=O)[O-])=C(CSc3cc(CO)nc4nc(CO)nn34)CS[C@H]12)c1csc(N)n1)C(=O)NNC(=O)c1ccc(O)c(O)c1.[Na+] (some centres unmarked) . Could you help?
Ans: 0.1 µg/mL

Q: Continue with Cc1cc(SCC2=C(C(=O)O)N3C(=O)C(NC(=O)C(=NOC(C)(C)C(=O)NNC(=O)c4ccc(O)c(O)c4)c4csc(N)n4)C3SC2)n2nc(CO)nc2n1 (centres unmarked)
Ans: 0.05 µg/mL
